Here the recorded GI50 is given for each entry.
tested on: HOP-62; assay: NCI tumour cell line growth inhibition, 48 h
Calls of active or inactive are those of the source. Cut-off read from the data, not from the text of the source: active = GI50 up to about 1.1 µM and inactive = higher.

Examples from the recorded data:
COMPOUND	REPORTED ENDPOINT	ASSAY RESULT
O=C1c2ccccc2C(=O)c2[nH]c(=O)c(/C=N/Nc3ccc([N+](=O)[O-])cc3)nc21	GI50	2.28 µM (inactive)
CCO[C@]12C[C@H](OC)[C@@]3(O)CC(C1[C@H]3OCc1ccccc1)C13C4C2[C@H](OC)C1[C@](COC)(CN4CC)[C@H](O)C[C@@H]3OC (stereo partly specified)	GI50	> 100 µM (inactive)
Nc1nc(SCc2ccccc2[N+](=O)[O-])c2[nH]cnc2n1	GI50	> 69.5 µM (inactive)

[in] Give me measured GI50, please, for this compound: `Cc1ccc2ccc(=O)oc2c1`
[out] > 100 µM (inactive)

[in] Give the reported GI50 for this compound. `O=C(O[C@@H](/C=C/c1ccccc1)P1(=O)N(Cc2ccccc2)[C@@H]2CCCC[C@H]2N1Cc1ccccc1)c1ccccc1`
[out] 6.79 µM (inactive)

[in] Please give the documented GI50 of `N[C@]1(C(=O)O)C[C@@H]2C(Br)=NO[C@@H]2C1`
[out] > 100 µM (inactive)

[in] State its GI50 for this compound: COc1nc(NC2OC(COC(C)=O)C(OC(C)=O)C(OC(C)=O)C2OC(C)=O)c(-c2csc(N)n2)c(=O)n1C (stereo unspecified)
[out] 29.6 µM (inactive)

[in] Please give measured GI50 of the following entry: `O=C(NC1CCCCC1)NC12CC3CC(CC(F)(C3)C1)C2`
[out] > 100 µM (inactive)

[in] Given the compound O=C(O)C12C3CCC(C3)C1(C(=O)O)C1CCC2C1 (stereo unspecified) , write its reported GI50.
[out] > 100 µM (inactive)

[in] // Input: `CC(C)CNc1nc2ncnc(N)c2[nH]1` . Output its GI50 only.
[out] > 100 µM (inactive)

[in] Identify GI50 associated with the compound `O=C1CCC(=O)c2c1c(O)c1ccncc1c2O`
[out] 30.9 µM (inactive)

[in] Identify the reported GI50 for the following entry. `CC(C)(C)[C@H]1NC(=O)CN1C(=O)OCc1ccccc1`
[out] > 100 µM (inactive)

[in] State its GI50: `COC1(OC)CC(CO)(COc2cc(Cl)nc(N)n2)C1`
[out] > 100 µM (inactive)

[in] Identify measured GI50 corresponding to `CCOC(=O)c1ccc(C(=O)OCC)n1-c1cc2cc(c1)CSCc1cc(cc(-n3c(C(=O)OCC)ccc3C(=O)OCC)c1)CSC2`
[out] > 10 µM (inactive)

[in] Supply GI50 value. Item: `CCNC(=S)N/N=C/c1ccccn1`
[out] 6.12 µM (inactive)

[in] State its GI50: `OC(c1ccc2c(c1)OCO2)c1ccc2c(c1)OCO2`
[out] > 100 µM (inactive)

###

tested on: A549; experiment: NCI tumour cell line growth inhibition, 48 h
Activity calls are given as the source filed them. No stated cut-off is given here; in the data, active = GI50 up to about 1.1 µM and inactive = higher.
Assign a class; possible classes are active, inactive

The examples below pair each entry with its known result.
                                   compound  qualitative_label
0  O=C1C2c3[nH]c4ccccc4c3[C@@H]3CCCCC3C2C(=O)N1c1ccccc1 (some centres not stated)           inactive
1  CCCCCCCCCCC(C)CCCCCCC(=O)OCC(COP(=O)([O-])OCC[N+](C)(C)C)OC(=O)CCCCCCC(C)CCCCCCCCCC (configuration not stated)           inactive
2                    CC/N=C(\N)CSS(=O)(=O)O           inactive

[in] Status in this test for O=P(O)(O)CC1OC(CO)C(O)C1O (configuration not stated) ?
[out] inactive

[in] Dear colleague, could you share the recorded outcome for `O=C1Nc2c(Cl)cc(Cl)cc2/C1=N/NC(=O)c1ccccc1O` when you have a moment?
[out] inactive

[in] Hello, I am checking results. What call was entered for `COc1ccc2c(c1)-c1oc3ccccc3c(=O)c1CO2` ?
[out] inactive

Source listed as ChEMBL document CHEMBL1201862.
